Assign remaining activity at 1 µM to each entry below.
Target: panel of 442 kinases (Homo sapiens, UniProt O75676)
Construct: purchased Ambit Biosciences (scanMAXX KINOMEscan)
Sequence (O75676 whole entry): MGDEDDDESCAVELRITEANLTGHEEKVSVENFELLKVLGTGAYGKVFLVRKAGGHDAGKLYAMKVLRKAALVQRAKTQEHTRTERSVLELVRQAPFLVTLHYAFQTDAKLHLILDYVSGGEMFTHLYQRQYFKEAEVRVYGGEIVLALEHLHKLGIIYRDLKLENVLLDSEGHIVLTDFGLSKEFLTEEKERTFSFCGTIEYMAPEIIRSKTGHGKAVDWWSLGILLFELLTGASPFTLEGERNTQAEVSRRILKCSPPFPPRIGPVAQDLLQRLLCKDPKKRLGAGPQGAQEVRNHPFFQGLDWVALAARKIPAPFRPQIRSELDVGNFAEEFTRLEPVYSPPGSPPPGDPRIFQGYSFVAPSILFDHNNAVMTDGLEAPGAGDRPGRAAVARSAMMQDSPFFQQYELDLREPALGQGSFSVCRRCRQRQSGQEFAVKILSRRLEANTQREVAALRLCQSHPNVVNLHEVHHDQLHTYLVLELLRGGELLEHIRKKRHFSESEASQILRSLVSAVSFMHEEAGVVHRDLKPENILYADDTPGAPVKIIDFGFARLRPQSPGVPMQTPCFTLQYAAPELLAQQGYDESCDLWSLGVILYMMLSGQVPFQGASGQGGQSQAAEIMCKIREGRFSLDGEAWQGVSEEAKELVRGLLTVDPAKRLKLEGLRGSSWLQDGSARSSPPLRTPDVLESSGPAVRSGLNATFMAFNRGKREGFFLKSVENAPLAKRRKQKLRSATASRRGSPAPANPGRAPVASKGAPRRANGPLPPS
Method Summary: biochemical
Assay type: binding
Reported Conditions: kinase RPS6KA4(Kin.Dom.2-C-terminal); 1 µM; read-out: RPS6KA4(Kin.Dom.2-C-terminal) (% of control at 1 µM)
Quick reminder: number only, in %, skip the unit.

query: Any idea what remaining activity at 1 µM was measured for Cn1c(=O)n(-c2ccc(C(C)(C)C#N)cc2)c2c3cc(-c4cnc5ccccc5c4)ccc3ncc21 [Dactolisib] ?
result: 100

query: May I ask what remaining activity at 1 µM has been recorded for Nc1cc(C(F)(F)F)c(-c2cc(N3CCOCC3)nc(N3CCOCC3)n2)cn1 [Buparlisib] ?
result: 94

query: For the compound COc1ncc(-c2ccc3nccc(-c4ccnnc4)c3c2)cc1NS(=O)(=O)c1ccc(F)cc1F [Omipalisib] , what remaining activity at 1 µM is on record?
result: 97

query: Given FC(F)c1nc2ccccc2n1-c1nc(N2CCOCC2)nc(N2CCOCC2)n1 [ZSTK474] , state its recorded remaining activity at 1 µM.
result: 100

====

Target: panel of 442 kinases (Homo sapiens, UniProt Q9Y2K2)
Construct: purchased Ambit Biosciences (scanMAXX KINOMEscan)
Sequence (Q9Y2K2 whole entry): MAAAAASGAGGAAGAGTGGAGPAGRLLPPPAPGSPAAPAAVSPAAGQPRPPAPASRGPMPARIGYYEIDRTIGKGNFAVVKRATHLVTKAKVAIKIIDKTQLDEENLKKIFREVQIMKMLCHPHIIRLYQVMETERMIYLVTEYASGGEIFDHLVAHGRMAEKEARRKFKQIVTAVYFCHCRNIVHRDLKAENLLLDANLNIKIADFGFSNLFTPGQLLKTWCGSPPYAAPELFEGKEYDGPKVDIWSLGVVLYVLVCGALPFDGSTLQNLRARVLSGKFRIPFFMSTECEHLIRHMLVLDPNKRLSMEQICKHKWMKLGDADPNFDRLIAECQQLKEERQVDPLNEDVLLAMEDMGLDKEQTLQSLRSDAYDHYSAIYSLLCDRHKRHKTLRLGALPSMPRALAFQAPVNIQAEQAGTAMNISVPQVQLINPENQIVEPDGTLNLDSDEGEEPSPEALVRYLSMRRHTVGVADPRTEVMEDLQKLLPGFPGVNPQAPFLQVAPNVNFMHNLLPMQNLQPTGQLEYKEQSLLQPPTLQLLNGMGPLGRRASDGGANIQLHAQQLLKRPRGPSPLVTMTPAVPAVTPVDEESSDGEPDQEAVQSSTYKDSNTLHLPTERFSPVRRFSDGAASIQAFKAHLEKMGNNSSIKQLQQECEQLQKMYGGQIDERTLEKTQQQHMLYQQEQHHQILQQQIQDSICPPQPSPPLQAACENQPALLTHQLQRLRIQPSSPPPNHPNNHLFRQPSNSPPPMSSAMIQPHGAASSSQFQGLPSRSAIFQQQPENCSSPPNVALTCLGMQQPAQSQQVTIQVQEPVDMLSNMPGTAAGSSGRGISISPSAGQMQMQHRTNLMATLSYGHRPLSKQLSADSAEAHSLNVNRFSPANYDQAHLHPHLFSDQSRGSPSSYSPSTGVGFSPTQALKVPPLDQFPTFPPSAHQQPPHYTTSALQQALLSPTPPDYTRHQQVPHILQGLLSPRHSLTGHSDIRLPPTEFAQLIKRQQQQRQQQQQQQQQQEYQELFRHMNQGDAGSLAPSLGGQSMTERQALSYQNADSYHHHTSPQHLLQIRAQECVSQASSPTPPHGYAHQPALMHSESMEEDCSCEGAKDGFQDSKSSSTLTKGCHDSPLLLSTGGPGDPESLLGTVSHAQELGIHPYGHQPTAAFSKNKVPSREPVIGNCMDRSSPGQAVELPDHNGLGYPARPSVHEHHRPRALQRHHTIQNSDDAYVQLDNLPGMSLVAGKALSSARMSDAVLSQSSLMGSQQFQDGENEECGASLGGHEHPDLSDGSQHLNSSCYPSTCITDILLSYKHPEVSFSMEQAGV
Method Summary: biochemical
Assay type: binding
Reported Conditions: kinase QSK; 1 µM; read-out: QSK (% of control at 1 µM)
Readout: remaining activity at 1 µM (%)
Only the number, expressed in %, is required.

query: Param item = COc1ncc(-c2ccc3nccc(-c4ccnnc4)c3c2)cc1NS(=O)(=O)c1ccc(F)cc1F [Omipalisib] ; retrieve measured remaining activity at 1 µM.
result: 100

query: Tell me the measured remaining activity at 1 µM of FC(F)c1nc2ccccc2n1-c1nc(N2CCOCC2)nc(N2CCOCC2)n1 [ZSTK474] , please.
result: 65

query: # input compound: Nc1cc(C(F)(F)F)c(-c2cc(N3CCOCC3)nc(N3CCOCC3)n2)cn1 [Buparlisib] ; wanted: its remaining activity at 1 µM
result: 100

query: Need remaining activity at 1 µM of Cn1c(=O)n(-c2ccc(C(C)(C)C#N)cc2)c2c3cc(-c4cnc5ccccc5c4)ccc3ncc21 [Dactolisib] , thanks.
result: 100

====

For each record, write down the corresponding remaining activity at 1 µM.
Target: panel of 442 kinases (Homo sapiens, UniProt Q9P289)
Construct: purchased Ambit Biosciences (scanMAXX KINOMEscan)
Sequence (Q9P289 whole entry): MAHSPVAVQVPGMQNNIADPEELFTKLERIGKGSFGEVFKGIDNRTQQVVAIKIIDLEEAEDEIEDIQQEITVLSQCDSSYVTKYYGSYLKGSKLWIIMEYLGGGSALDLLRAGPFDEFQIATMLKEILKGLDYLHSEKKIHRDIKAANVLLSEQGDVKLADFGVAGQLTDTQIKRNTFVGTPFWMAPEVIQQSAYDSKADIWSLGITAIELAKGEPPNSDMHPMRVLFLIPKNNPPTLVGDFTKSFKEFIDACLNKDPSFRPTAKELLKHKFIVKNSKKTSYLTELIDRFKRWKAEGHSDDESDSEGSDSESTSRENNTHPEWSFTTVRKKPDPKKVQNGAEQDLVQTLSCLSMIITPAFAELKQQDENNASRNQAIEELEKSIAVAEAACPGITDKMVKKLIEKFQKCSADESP
Method Summary: biochemical
Type: binding
Reported Conditions: kinase MST4; 1 µM; read-out: % of control at 1 µM
Respond with the bare value in %.

query: Give the measured remaining activity at 1 µM of Nc1cc(C(F)(F)F)c(-c2cc(N3CCOCC3)nc(N3CCOCC3)n2)cn1 [Buparlisib] .
result: 100

query: Fill blank: measured remaining activity at 1 µM of the compound COc1ncc(-c2ccc3nccc(-c4ccnnc4)c3c2)cc1NS(=O)(=O)c1ccc(F)cc1F [Omipalisib] is ____.
result: 91

query: Quick one: remaining activity at 1 µM of Cn1c(=O)n(-c2ccc(C(C)(C)C#N)cc2)c2c3cc(-c4cnc5ccccc5c4)ccc3ncc21 [Dactolisib] ?
result: 76

query: Quick check: remaining activity at 1 µM of FC(F)c1nc2ccccc2n1-c1nc(N2CCOCC2)nc(N2CCOCC2)n1 [ZSTK474] ?
result: 68

====

Target: panel of 442 kinases (Homo sapiens)
Construct: purchased Ambit Biosciences (scanMAXX KINOMEscan)
Method Summary: biochemical
Format: binding
Reported Conditions: CAMK1G; 1 µM; read-out: % of control at 1 µM
Readout: remaining activity at 1 µM (%)
Provide the reading as a plain figure in %.

query: Can you share its remaining activity at 1 µM? I mean this compound: Nc1cc(C(F)(F)F)c(-c2cc(N3CCOCC3)nc(N3CCOCC3)n2)cn1 [Buparlisib]
result: 100

query: Endpoint output: remaining activity at 1 µM of COc1ncc(-c2ccc3nccc(-c4ccnnc4)c3c2)cc1NS(=O)(=O)c1ccc(F)cc1F [Omipalisib] . Value?
result: 100

query: What measured remaining activity at 1 µM goes with Cn1c(=O)n(-c2ccc(C(C)(C)C#N)cc2)c2c3cc(-c4cnc5ccccc5c4)ccc3ncc21 [Dactolisib] ?
result: 87

query: // returns reported remaining activity at 1 µM for input FC(F)c1nc2ccccc2n1-c1nc(N2CCOCC2)nc(N2CCOCC2)n1 [ZSTK474]
result: 91

====

Target: panel of 442 kinases (Homo sapiens)
Construct: purchased Ambit Biosciences (scanMAXX KINOMEscan)
Method Summary: biochemical
Assay type: binding
Reported Conditions: kinase JNK1; 1 µM; read-out: % of control at 1 µM
Readout: remaining activity at 1 µM (%)
All answers are understood in %, so give the number only.

query: Hi! What's the reported remaining activity at 1 µM for `Nc1cc(C(F)(F)F)c(-c2cc(N3CCOCC3)nc(N3CCOCC3)n2)cn1` on panel of 442 kinases (Homo sapiens)?
result: 98

query: # get_value(readout= remaining activity at 1 µM, system= panel of 442 kinases (Homo sapiens)) for `FC(F)c1nc2ccccc2n1-c1nc(N2CCOCC2)nc(N2CCOCC2)n1`
result: 86

query: Lab note: need remaining activity at 1 µM for `Cn1c(=O)n(-c2ccc(C(C)(C)C#N)cc2)c2c3cc(-c4cnc5ccccc5c4)ccc3ncc21` on panel of 442 kinases (Homo sapiens), anyone have it?
result: 84

query: Lab note: need remaining activity at 1 µM with panel of 442 kinases (Homo sapiens) for entry `COc1ncc(-c2ccc3nccc(-c4ccnnc4)c3c2)cc1NS(=O)(=O)c1ccc(F)cc1F` , please look it up.
result: 100

====

Would you mind telling me the reported remaining activity at 1 µM of each entry?
Target: panel of 442 kinases (Homo sapiens, UniProt Q8N5S9)
Construct: purchased Ambit Biosciences (scanMAXX KINOMEscan)
Sequence (Q8N5S9 whole entry): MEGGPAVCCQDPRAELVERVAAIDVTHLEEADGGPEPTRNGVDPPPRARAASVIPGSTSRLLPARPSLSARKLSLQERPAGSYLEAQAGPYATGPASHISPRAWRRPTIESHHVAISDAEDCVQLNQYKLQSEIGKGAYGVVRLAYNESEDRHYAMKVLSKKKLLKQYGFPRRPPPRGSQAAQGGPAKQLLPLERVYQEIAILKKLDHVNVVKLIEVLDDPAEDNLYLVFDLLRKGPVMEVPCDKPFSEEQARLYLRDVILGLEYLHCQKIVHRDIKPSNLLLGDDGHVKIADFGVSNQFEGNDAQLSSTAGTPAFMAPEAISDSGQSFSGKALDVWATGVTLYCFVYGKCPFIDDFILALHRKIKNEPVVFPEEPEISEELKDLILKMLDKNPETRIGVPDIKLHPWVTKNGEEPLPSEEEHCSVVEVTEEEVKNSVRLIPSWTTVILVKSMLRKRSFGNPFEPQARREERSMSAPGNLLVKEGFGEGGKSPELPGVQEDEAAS
Method Summary: biochemical
Format: binding
Reported Conditions: CAMKK1; 1 µM; read-out: % of control at 1 µM
Give the value in % but do not write % after it.

query: So what remaining activity at 1 µM did `FC(F)c1nc2ccccc2n1-c1nc(N2CCOCC2)nc(N2CCOCC2)n1` get with panel of 442 kinases (Homo sapiens, UniProt Q8N5S9)?
result: 100

query: Missing value: remaining activity at 1 µM, panel of 442 kinases (Homo sapiens, UniProt Q8N5S9), entry `Cn1c(=O)n(-c2ccc(C(C)(C)C#N)cc2)c2c3cc(-c4cnc5ccccc5c4)ccc3ncc21` . Fill in?
result: 79

query: Param readout= remaining activity at 1 µM; system= panel of 442 kinases (Homo sapiens, UniProt Q8N5S9); entry= `COc1ncc(-c2ccc3nccc(-c4ccnnc4)c3c2)cc1NS(=O)(=O)c1ccc(F)cc1F` ; returns value.
result: 100

query: Notebook entry, panel of 442 kinases (Homo sapiens, UniProt Q8N5S9) assay: remaining activity at 1 µM of `Nc1cc(C(F)(F)F)c(-c2cc(N3CCOCC3)nc(N3CCOCC3)n2)cn1` = ?
result: 100

====

Would you mind telling me the reported remaining activity at 1 µM of each entry?
Target: panel of 442 kinases (Homo sapiens, UniProt Q9UM73)
Construct: purchased Ambit Biosciences (scanMAXX KINOMEscan)
Sequence (Q9UM73 19-1620): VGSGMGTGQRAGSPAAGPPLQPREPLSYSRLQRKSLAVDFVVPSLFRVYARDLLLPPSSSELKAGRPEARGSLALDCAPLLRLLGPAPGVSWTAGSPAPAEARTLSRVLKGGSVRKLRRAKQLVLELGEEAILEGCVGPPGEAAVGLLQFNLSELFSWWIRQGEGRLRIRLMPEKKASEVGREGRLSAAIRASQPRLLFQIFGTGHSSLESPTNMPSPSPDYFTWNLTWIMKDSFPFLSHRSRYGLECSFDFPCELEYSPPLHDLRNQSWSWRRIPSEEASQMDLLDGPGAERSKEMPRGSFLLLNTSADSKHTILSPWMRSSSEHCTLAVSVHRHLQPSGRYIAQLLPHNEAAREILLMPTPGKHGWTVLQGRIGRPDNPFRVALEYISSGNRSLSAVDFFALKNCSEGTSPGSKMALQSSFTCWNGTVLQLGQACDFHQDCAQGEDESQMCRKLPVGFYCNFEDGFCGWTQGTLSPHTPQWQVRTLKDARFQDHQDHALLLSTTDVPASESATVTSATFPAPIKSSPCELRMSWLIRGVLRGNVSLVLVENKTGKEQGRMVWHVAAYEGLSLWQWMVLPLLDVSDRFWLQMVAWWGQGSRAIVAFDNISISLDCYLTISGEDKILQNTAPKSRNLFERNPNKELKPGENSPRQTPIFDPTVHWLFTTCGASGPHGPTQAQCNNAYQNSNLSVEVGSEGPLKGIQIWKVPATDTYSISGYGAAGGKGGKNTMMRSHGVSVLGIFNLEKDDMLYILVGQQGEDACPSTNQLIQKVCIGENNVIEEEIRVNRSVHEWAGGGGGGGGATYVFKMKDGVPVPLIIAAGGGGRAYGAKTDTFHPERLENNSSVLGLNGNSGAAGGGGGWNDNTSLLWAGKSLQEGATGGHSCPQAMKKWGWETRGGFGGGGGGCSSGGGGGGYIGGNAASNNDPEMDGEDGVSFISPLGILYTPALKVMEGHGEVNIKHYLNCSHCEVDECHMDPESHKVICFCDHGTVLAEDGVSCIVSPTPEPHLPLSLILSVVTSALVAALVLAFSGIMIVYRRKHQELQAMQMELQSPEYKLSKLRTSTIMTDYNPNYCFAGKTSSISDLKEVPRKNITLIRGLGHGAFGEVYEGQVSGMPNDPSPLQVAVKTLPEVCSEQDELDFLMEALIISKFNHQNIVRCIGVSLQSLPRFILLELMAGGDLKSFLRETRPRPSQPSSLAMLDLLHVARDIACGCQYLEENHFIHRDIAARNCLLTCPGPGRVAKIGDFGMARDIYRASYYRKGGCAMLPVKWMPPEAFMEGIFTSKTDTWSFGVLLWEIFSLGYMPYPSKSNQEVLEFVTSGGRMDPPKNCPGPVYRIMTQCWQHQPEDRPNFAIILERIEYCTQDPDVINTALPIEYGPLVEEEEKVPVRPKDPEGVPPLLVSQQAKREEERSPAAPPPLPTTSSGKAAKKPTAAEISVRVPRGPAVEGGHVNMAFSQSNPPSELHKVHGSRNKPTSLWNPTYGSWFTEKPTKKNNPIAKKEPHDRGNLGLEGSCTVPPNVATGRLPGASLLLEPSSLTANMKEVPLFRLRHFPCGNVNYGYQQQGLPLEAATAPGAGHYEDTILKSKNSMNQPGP
Method Summary: biochemical
Type: binding
Reported Conditions: ALK; 1 µM; read-out: % of control at 1 µM
Answer format: numeric, % implied, no suffix.

query: Give its remaining activity at 1 µM value. Item: `FC(F)c1nc2ccccc2n1-c1nc(N2CCOCC2)nc(N2CCOCC2)n1`
result: 93

query: Query (compound): `Cn1c(=O)n(-c2ccc(C(C)(C)C#N)cc2)c2c3cc(-c4cnc5ccccc5c4)ccc3ncc21` ; field requested: remaining activity at 1 µM
result: 72

query: GET /values?readout=remaining activity at 1 µM&item= `COc1ncc(-c2ccc3nccc(-c4ccnnc4)c3c2)cc1NS(=O)(=O)c1ccc(F)cc1F`
result: 100

query: Quick one: remaining activity at 1 µM for `Nc1cc(C(F)(F)F)c(-c2cc(N3CCOCC3)nc(N3CCOCC3)n2)cn1` ?
result: 100

====

Target: panel of 442 kinases (Homo sapiens, UniProt P29322)
Construct: purchased Ambit Biosciences (scanMAXX KINOMEscan)
Sequence (P29322 28-1005): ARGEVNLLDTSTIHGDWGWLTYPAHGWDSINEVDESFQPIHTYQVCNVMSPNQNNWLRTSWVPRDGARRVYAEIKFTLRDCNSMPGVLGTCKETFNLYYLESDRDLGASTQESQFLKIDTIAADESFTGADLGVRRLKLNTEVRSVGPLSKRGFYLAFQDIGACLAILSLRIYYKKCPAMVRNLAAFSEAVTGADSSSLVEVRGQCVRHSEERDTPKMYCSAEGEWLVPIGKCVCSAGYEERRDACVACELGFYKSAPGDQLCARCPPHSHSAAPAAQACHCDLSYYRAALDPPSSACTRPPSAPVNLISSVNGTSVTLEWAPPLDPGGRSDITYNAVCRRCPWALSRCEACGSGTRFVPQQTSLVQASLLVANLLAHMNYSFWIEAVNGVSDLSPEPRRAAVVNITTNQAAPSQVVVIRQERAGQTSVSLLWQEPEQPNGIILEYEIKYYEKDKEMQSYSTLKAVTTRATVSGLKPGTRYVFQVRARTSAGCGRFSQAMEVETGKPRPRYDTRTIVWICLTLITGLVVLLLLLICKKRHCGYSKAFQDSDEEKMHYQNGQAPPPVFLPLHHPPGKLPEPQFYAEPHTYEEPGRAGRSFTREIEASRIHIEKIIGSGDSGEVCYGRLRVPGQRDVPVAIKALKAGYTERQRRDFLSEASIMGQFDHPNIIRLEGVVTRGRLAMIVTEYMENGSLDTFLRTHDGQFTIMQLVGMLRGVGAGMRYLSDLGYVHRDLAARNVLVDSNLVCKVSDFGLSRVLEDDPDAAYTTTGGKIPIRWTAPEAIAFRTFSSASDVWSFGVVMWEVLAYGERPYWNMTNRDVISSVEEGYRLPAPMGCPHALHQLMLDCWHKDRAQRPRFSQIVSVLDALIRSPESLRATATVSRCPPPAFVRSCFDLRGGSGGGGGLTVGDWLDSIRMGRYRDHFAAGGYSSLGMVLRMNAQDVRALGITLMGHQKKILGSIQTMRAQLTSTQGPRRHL
Method Summary: biochemical
Format: binding
Reported Conditions: EPHA8; 1 µM; read-out: % of control at 1 µM
For each of the compounds below, state its remaining activity at 1 µM.
Record the value in %, omitting the unit from your answer.

query: Which remaining activity at 1 µM reading was recorded for the compound `COc1ncc(-c2ccc3nccc(-c4ccnnc4)c3c2)cc1NS(=O)(=O)c1ccc(F)cc1F` ?
result: 100

query: Dear colleague, I am looking for the recorded remaining activity at 1 µM of the following compound: `FC(F)c1nc2ccccc2n1-c1nc(N2CCOCC2)nc(N2CCOCC2)n1`
result: 100

query: Param item = `Nc1cc(C(F)(F)F)c(-c2cc(N3CCOCC3)nc(N3CCOCC3)n2)cn1` ; retrieve measured remaining activity at 1 µM.
result: 100

query: Fill in the blank: the reported remaining activity at 1 µM of `Cn1c(=O)n(-c2ccc(C(C)(C)C#N)cc2)c2c3cc(-c4cnc5ccccc5c4)ccc3ncc21` is ____.
result: 94
